- Tested on: RXRa DBDmut IVT, anti-RXR (DBD mutation: RXRa K156A/R161A, NR concentration 90 nM)
- test: PBM binding z-score (relative to random genomic background probes); higher = stronger binding; sequences stand for … in GC…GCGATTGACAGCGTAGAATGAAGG
measure: PBM binding z-score
One number for each entry.

Example results:
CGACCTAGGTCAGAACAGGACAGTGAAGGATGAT :: 0.773
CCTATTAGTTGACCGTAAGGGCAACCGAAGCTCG :: 0.339
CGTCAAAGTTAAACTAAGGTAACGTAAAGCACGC :: 0.0253
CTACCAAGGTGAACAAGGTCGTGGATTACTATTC :: 0.592
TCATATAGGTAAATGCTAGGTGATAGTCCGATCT :: 1.37
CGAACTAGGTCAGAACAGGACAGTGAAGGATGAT :: 0.418
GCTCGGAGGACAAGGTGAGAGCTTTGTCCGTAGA :: -0.507
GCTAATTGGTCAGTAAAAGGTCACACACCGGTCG :: 0.816

Please go through the list and note PBM binding z-score for each sequence.
1. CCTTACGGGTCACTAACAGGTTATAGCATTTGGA
2. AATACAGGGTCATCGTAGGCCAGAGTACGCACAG

Output:
1: 2.03; 2: 3.55
